# ASSAY_EXPLANATION: Quantitative High-Throughput drug screen in 47 multiple myeloma cell lines against the NCATS MIPE library collection: PCM6_Riken cell viability assay (AID 1919870); note: nearly all actives have a fitted effect of over 30% in size
# EXPERIMENTAL_PARAMETERS: CellTiter-Glo ATP, 48 h; series mostly up to 45.8 µM
# From the text: PI: Beverly A. Mock Ph.D. Laboratory of Cancer Biology and Genetics, Center for Cancer Research, National Cancer Institute, National Institute of Health, Bethesda, Maryland […] 5; Detector; 425V; Luminescence; Viewlux PerkinElmer. […] 1. […] Briefly, the corresponding myeloma cell lines were screened in 1,536-well plates with 500 cells, 5-uL per well for inhibition of cell viability (assessed by measuring ATP levels with CellTiterGlo). […]
Records with an inconclusive call do not appear. Active and inactive are the calls of the source. Calls come from the whole dose curve; as a rule, active = well fitted cell-killing curve with a large enough effect; inconclusive = small, poorly fitted or top-dose-only effect, or effect the other way; inactive = no such curve, though single readings can be large or run the other way.
Possible outcomes: active, inactive

{"COMPOUND": "C[C@]12CC[C@H]3[C@@H](CCC4=CC(=O)CC[C@@]43C)[C@H]1CC[C@H]2OC(=O)CCC1CCCC1", "CAT": "inactive"}
{"COMPOUND": "Cc1ccccc1-n1c(Cn2cnc3c(N)ncnc32)nc2cccc(C)c2c1=O", "CAT": "active"}
{"COMPOUND": "Cc1ccccc1-n1c(Cn2ncc3c(N)ncnc32)nc2cccc(C)c2c1=O", "CAT": "active"}
{"COMPOUND": "CC(C)N[C@@H]1CCn2c(=O)[nH]c3cccc(c32)[C@@H]1O", "CAT": "active"}
{"COMPOUND": "CCC(=O)OC1CCC2C3CCC4=CC(=O)CC[C@@]4(C)C3CC[C@]12C (some centres not stated)", "CAT": "inactive"}
{"COMPOUND": "COc1cc([C@@H]2c3cc4c(cc3[C@@H](O)C3COC(=O)C32)OCO4)cc(OC)c1O (some centres not stated)", "CAT": "active"}
{"COMPOUND": "CN(C)NC(=O)CCC(=O)O", "CAT": "active"}

----------
# ASSAY_EXPLANATION: Quantitative High-Throughput drug screen in 47 multiple myeloma cell lines against the NCATS MIPE library collection: L363_DSMZ cell viability assay (AID 1918984); note: nearly all actives have a fitted effect of over 40% in size; note: potency is the fitted concentration of half-maximal effect
# EXPERIMENTAL_PARAMETERS: L363 myeloma viability, CellTiter-Glo ATP luminescence, 48 h; series mostly up to 45.8 µM
# Text: PI: Beverly A. Mock Ph.D. Laboratory of Cancer Biology and Genetics, Center for Cancer Research, National Cancer Institute, National Institute of Health, Bethesda, Maryland […] 5; Detector; 425V; Luminescence; Viewlux PerkinElmer. […] 1. […] Briefly, the corresponding myeloma cell lines were screened in 1,536-well plates with 500 cells, 5-uL per well for inhibition of cell viability (assessed by measuring ATP levels with CellTiterGlo). […]
Results filed as inconclusive are left out. Active and inactive are the calls of the source. The call rests on the fitted dose curve; in most records, active means well fitted cell-killing curve with a large enough effect; inconclusive means small, poorly fitted or top-dose-only effect, or effect the other way; inactive means no such curve, though single readings can be large or run the other way.

{"CHEMICAL_SMILES": "CC(C)[C@H]1C(=O)N[C@H](CO)Cc2c[nH]c3cccc(c23)N1C", "Potency": "inactive"}
{"CHEMICAL_SMILES": "C[C@]12COC(=O)C[C@@H]1CC[C@@H]1[C@H]2CC[C@@]2(C)[C@H]1CC[C@]2(C)O", "Potency": "inactive"}
{"CHEMICAL_SMILES": "Cc1c(C(=O)Nc2cccc(C(F)(F)F)c2)cc(-c2ccccc2)n1CCCN1CCOCC1", "Potency": "5.9 µM (active)"}

----------
# ASSAY_TARGET: Cytochrome P450 2D6 (Homo sapiens)
# ASSAY_EXPLANATION: Cytochrome P450 family 2 subfamily D member 6 (CYP2D6) small molecule antagonists: luciferase biochemical (cell-free) qHTS assay (AID 1645840); note: nearly all actives have a fitted effect of over 55% in size; note: potency is the fitted concentration of half-maximal effect
# EXPERIMENTAL_PARAMETERS: P450-Glo CYP2D6 enzyme, luciferin luminescence, 1 h; series mostly up to 57.4 µM
Inconclusive results are not listed. Activity calls are given as the source filed them. The call rests on the fitted dose curve; in most records, active means well fitted inhibition curve with a large enough effect in the repeat runs; inconclusive means weak or mixed curves; inactive means flat fitted curve, though single readings scatter.
MEASURED_PARAMETER: Potency

{"COMPOUND": "COc1ccc(C(c2ccc(OC)cc2)C(Cl)(Cl)Cl)cc1", "ASSAY_TARGET": "Cytochrome P450 2D6 (Homo sapiens)", "MEASURED_PARAMETER": "Potency", "RESULT": "inactive"}
{"COMPOUND": "CCOC(=O)Nc1ccc(NCc2ccc(F)cc2)cc1N", "ASSAY_TARGET": "Cytochrome P450 2D6 (Homo sapiens)", "MEASURED_PARAMETER": "Potency", "RESULT": "19 µM (active)"}
{"COMPOUND": "Fc1cc(Br)ccc1CBr", "ASSAY_TARGET": "Cytochrome P450 2D6 (Homo sapiens)", "MEASURED_PARAMETER": "Potency", "RESULT": "inactive"}
{"COMPOUND": "CC(C)N(CCNC(=O)CN1CCCC1=O)C(C)C", "ASSAY_TARGET": "Cytochrome P450 2D6 (Homo sapiens)", "MEASURED_PARAMETER": "Potency", "RESULT": "inactive"}
{"COMPOUND": "COCCOCCO", "ASSAY_TARGET": "Cytochrome P450 2D6 (Homo sapiens)", "MEASURED_PARAMETER": "Potency", "RESULT": "inactive"}
{"COMPOUND": "O=[N+]([O-])c1c2ccccc2cc2ccccc12", "ASSAY_TARGET": "Cytochrome P450 2D6 (Homo sapiens)", "MEASURED_PARAMETER": "Potency", "RESULT": "inactive"}
{"COMPOUND": "O=C(O)CCCOc1ccc(Cl)cc1Cl", "ASSAY_TARGET": "Cytochrome P450 2D6 (Homo sapiens)", "MEASURED_PARAMETER": "Potency", "RESULT": "inactive"}
{"COMPOUND": "CN[C@@H](C)[C@H](O)c1ccccc1", "ASSAY_TARGET": "Cytochrome P450 2D6 (Homo sapiens)", "MEASURED_PARAMETER": "Potency", "RESULT": "inactive"}
{"COMPOUND": "OCCCBr", "ASSAY_TARGET": "Cytochrome P450 2D6 (Homo sapiens)", "MEASURED_PARAMETER": "Potency", "RESULT": "inactive"}
{"COMPOUND": "C=CCC1=C(C)C(OC(=O)C2C(C=C(C)C)C2(C)C)CC1=O (centres undefined)", "ASSAY_TARGET": "Cytochrome P450 2D6 (Homo sapiens)", "MEASURED_PARAMETER": "Potency", "RESULT": "23.8 µM (active)"}
{"COMPOUND": "O=C(Oc1ccc([N+](=O)[O-])cc1)N1CCN(Cc2cccc(Oc3ccccc3)c2)CC1", "ASSAY_TARGET": "Cytochrome P450 2D6 (Homo sapiens)", "MEASURED_PARAMETER": "Potency", "RESULT": "2.68 µM (active)"}
{"COMPOUND": "CCCCCCCCCC(CC)c1ccc(S(=O)(=O)O)cc1 (centres undefined)", "ASSAY_TARGET": "Cytochrome P450 2D6 (Homo sapiens)", "MEASURED_PARAMETER": "Potency", "RESULT": "26.7 µM (active)"}
{"COMPOUND": "CCCCCCCCc1ccc(O)cc1", "ASSAY_TARGET": "Cytochrome P450 2D6 (Homo sapiens)", "MEASURED_PARAMETER": "Potency", "RESULT": "31 µM (active)"}
{"COMPOUND": "CC1=NN=C(c2ccc(N)cc2)c2cc3c(cc2C1)OCO3", "ASSAY_TARGET": "Cytochrome P450 2D6 (Homo sapiens)", "MEASURED_PARAMETER": "Potency", "RESULT": "19 µM (active)"}

----------
# ASSAY_EXPLANATION: Immunotoxin (HA22) sensitization/mitigation study. Vehicle arm (PBS) (AID 1159510)
# EXPERIMENTAL_PARAMETERS: cancer cells viability with PBS vehicle (HA22 study); series mostly up to 46.1 µM
Activity calls are given as the source filed them. The rule behind the calls is not given here.
Possible outcomes: Y = active, N = inactive

{"COMPOUND": "CC[C@@H](C(=O)O)C1CC[C@H](C)C([C@@H](C)[C@H](O)[C@H](C)C(=O)[C@H](CC)C2O[C@]3(C=C[C@@H](O)[C@]4(CC[C@@](C)(C5CC[C@](O)(CC)[C@H](C)O5)O4)O3)[C@H](C)C[C@@H]2C)O1 (some centres undefined)", "CAT": "Y"}
{"COMPOUND": "Cc1cc(Nc2cc(N3CCN(C)CC3)nc(C=Cc3ccccc3)n2)n[nH]1", "CAT": "Y"}
{"COMPOUND": "CCCCc1ccc(NS(=O)(=O)c2ccc(C)c(C(=O)N3CCN(c4cccc(C)c4C)CC3)c2)cc1", "CAT": "Y"}
{"COMPOUND": "C1Cc2[nH]nc(-c3nn[nH]n3)c2C1", "CAT": "N"}

----------
# ASSAY_EXPLANATION: Quantitative High-Throughput drug screen in 47 multiple myeloma cell lines against the NCATS MIPE library collection: OPM1_PLB cell viability assay (AID 1918989); note: nearly all actives have a fitted effect of over 40% in size
# EXPERIMENTAL_PARAMETERS: CellTiter-Glo, 48 h; series mostly up to 45.8 µM
Results filed as inconclusive are left out. Activity calls are given as the source filed them. The call rests on the fitted dose curve; in most records, active means well fitted cell-killing curve with a large enough effect; inconclusive means small, poorly fitted or top-dose-only effect, or effect the other way; inactive means no such curve, though single readings can be large or run the other way.
Possible outcomes: active, inactive

{"COMPOUND": "CCC(=O)OC1CCC2C3CCC4=CC(=O)CC[C@@]4(C)C3CC[C@]12C (stereo partly drawn)", "CAT": "inactive"}
{"COMPOUND": "CO[C@H]1CCC(O[C@H]2C[C@H]([C@]3(C)CC[C@]4(C[C@H](O)[C@@H](C)[C@@H]([C@@H](C)C=C(C)C(=O)[C@H](C)C[C@H](C)C(=O)O)O4)O3)O[C@]3(O[C@@H]([C@H]4O[C@@](O)(CO)[C@H](C)C[C@H]4C)C[C@H]3C)[C@H]2C)O[C@H]1C (stereo partly drawn)", "CAT": "active"}
{"COMPOUND": "C[C@@]12OC(=O)[C@]1([C@@H](O)[C@@H]1C=CCCC1)NC(=O)[C@H]2CCCl", "CAT": "active"}
{"COMPOUND": "CCCN1CCO[C@@H]2c3cc(O)ccc3OC[C@@H]21", "CAT": "inactive"}
{"COMPOUND": "O=c1cccc2n1CC1CNC[C@H]2C1", "CAT": "active"}
{"COMPOUND": "COC1=CC(C)=C[C@@H](C)[C@@H](O)[C@@H](C)CC(C)=CC=C[C@H](OC)[C@H]([C@@H](C)[C@@H](O)[C@H](C)[C@@]2(O)C[C@@H](O)[C@H](C)[C@@H](C(C)C)O2)OC1=O", "CAT": "active"}
{"COMPOUND": "CCN1CCN(C(=O)Cc2ccc(Nc3ncc(F)c(Nc4ccc(C(=O)Nc5ccccc5Cl)cc4)n3)cc2)CC1", "CAT": "active"}
{"COMPOUND": "CC(C)N[C@@H]1CCn2c(=O)[nH]c3cccc(c32)[C@@H]1O", "CAT": "active"}
{"COMPOUND": "CC1=NN=C(c2ccc(N)cc2)c2cc3c(cc2C1)OCO3", "CAT": "inactive"}
{"COMPOUND": "Cc1nc(-c2ccc(-c3ccc(C(=O)N4CCc5cc6c(cc54)C4(CCN(C)CC4)CO6)cc3)c(C)c2)no1", "CAT": "inactive"}
{"COMPOUND": "O=C(N[C@H]1CN2CCC1CC2)c1ccc(Cl)cc1", "CAT": "inactive"}
{"COMPOUND": "CCOC(=O)c1c(C(C#N)=CN)c2ccc(Cl)c(Cl)c2n1C", "CAT": "inactive"}
{"COMPOUND": "Cc1c(C(=O)Nc2cccc(C(F)(F)F)c2)cc(-c2ccccc2)n1CCCN1CCOCC1", "CAT": "active"}
{"COMPOUND": "CN[C@@H]1Cc2cccc3[nH]c(=O)n(c23)C1", "CAT": "inactive"}
{"COMPOUND": "CCN(CC)C(=O)c1ccc(C2=CC3(CCNCC3)Oc3cccc(O)c32)cc1", "CAT": "inactive"}
{"COMPOUND": "COc1ccc2c(c1)CN(C)CC2c1ccc(Cl)c(Cl)c1 (stereo not drawn)", "CAT": "active"}
{"COMPOUND": "C#CC1(O)CCC2C3CCC4=CC(=O)CCC4(C)C3CCC21C (stereo not drawn)", "CAT": "inactive"}
{"COMPOUND": "CC[C@@H]1[C@@H](C)O[C@@](O)([C@@H](C)[C@H](O)[C@H](C)[C@H]2OC(=O)C=CC=C[C@@H](C)[C@@H]([C@@H](C)[C@@H](O)[C@H](C)[C@@]3(O)C[C@H](O[C@H]4C[C@H](O)[C@H](O)[C@H](C)O4)[C@H](CC)[C@@H](C)O3)OC(=O)C=CC=C[C@@H]2C)C[C@H]1O[C@H]1C[C@H](O)[C@H](O)[C@H](C)O1", "CAT": "active"}
{"COMPOUND": "C[C@H]1CCCC=CC2C[C@H](O)C[C@@H]2[C@H](O)C=CC(=O)O1 (stereo partly drawn)", "CAT": "inactive"}
{"COMPOUND": "Clc1ccccc1C(c1ccccc1)(c1ccccc1)n1cccn1", "CAT": "inactive"}
{"COMPOUND": "COc1ccc(CC2NCCc3cc(OC)c(OC)cc32)cc1OC (stereo not drawn)", "CAT": "inactive"}
{"COMPOUND": "CC(=O)OCC1=C(C(=O)O)N2C(=O)[C@@H](N)[C@@H]2SC1", "CAT": "inactive"}
{"COMPOUND": "Cc1c(C(=O)c2cccc3ccccc23)c2cccc3c2n1[C@H](CN1CCOCC1)CO3", "CAT": "active"}
